Source listed as patent US12590105B2.

Biological target: constitutive RAS GTPase activity in H358 cells (Homo sapiens, UniProt P01116, G12C)
Sequence (P01116 1-188 isoform P01116-2 G12C): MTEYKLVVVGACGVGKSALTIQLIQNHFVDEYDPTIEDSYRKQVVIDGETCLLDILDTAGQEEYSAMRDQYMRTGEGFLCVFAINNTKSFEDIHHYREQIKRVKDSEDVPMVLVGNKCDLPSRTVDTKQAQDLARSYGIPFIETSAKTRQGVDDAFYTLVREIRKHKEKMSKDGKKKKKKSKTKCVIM
Assay: H358 Cellular Active RAS GTPase ELISA
Conditions: H358 human lung cancer cells, serum free media, 2 hours incubation; read-out: relative IC50, inhibition of constitutive RAS GTPase activity
property_label: IC50 (nM)
Write it as a number; the unit nM goes unstated.

Record C=CC(=O)N1CCN2C(=O)c3cc(Cl)c(-c4ccc(F)c5sccc45)c(Cl)c3OCC[C@H]2C1 (single isomer, unassigned) has constitutive RAS GTPase activity in H358 cells (Homo sapiens, UniProt P01116, G12C) IC50 equal to 326
